Assay: Mean residence time in fed cynomolgus monkey at 5 mg/kg, po after 24 hrs by HPLC
Type: ADME, organism-based, Macaca fascicularis
Design: dose 5 mg/kg, route oral
Settings: in vivo
Entries and their MRT values follow.
Give just the number in h; leave the unit off.

Reference set (2 entries):
{"columns": ["compound", "quantity.unit", "observed.measurement"],
 "data": [
  ["CCC(CC)(NC(=O)c1c(C)nn2c1N[C@@H](c1ccccc1)CC2(C)C)c1ccc(C(C)O)cc1 (stereo partly drawn)", "h", 6.16],
  ["CCC(CC)(NC(=O)c1c(C)nn2c1N[C@@H](c1ccccc1)CC2(C)C)c1ccc(C(C)=O)cc1", "h", 6.36]
]}

Let us move to another entry and its MRT.
In: Fill in the blank: the reported MRT of "CCc1ccc(C(CC)(CC)NC(=O)c2c(C)nn3c2N[C@@H](c2ccccc2)CC3(C)C)cc1.Cc1ccc(S(=O)(=O)O)cc1" is ____.
Out: 5.99
